Measured values drawn from patent US11136339B2 for this set.

- testProtocol: in vivo
- studyConditions: female, BALB/c, mouse, iv, 10 mg/kg
observedProperty: Cmax (ng/mL)
Report the figure in ng/mL without appending any unit label.

Given the compound C[C@H]1[C@H](OC(=O)CCC(=O)O)O[C@@H]2O[C@@]3(C)CC[C@H]4[C@H](C)CC[C@@H]1[C@@]24OO3 [Artesunate] , what is its reported Cmax? 23400

----------
- testProtocol: Solubility in water
- Type: physicochemical
- studyConditions: 20 °C
- Description: 0.1 g of product B was dissolved in 20 mL of dichloromethane, added with 10 ml of TFA and 1 mL of triisopropylsilane, and reacted at 25° C. for 2 h. A reaction solution was diluted to 50 mL with dichloromethane, washed three times with saturated NaHCO3, and dried with Na2SO4, and a solvent was evaporated by rotation to obtain crude products. […]
observedProperty: solubility (µg/mL)
Report the figure in µg/mL without appending any unit label.

Given the compound C[C@H]1[C@H](OC(=O)CCC(=O)O)O[C@@H]2O[C@@]3(C)CC[C@H]4[C@H](C)CC[C@@H]1[C@@]24OO3 [Artesunate] , what is its reported solubility? 360

----------
- Tested on: human erythrocyte infected by plasmodium strain (3D7)
- testProtocol: Plasmodium killing test, SYBR Green I fluorescence method
- Type: cell-based
- studyConditions: 3D7, Erythrocyte, 48 h, read-out: median inhibitory concentration IC50 for killing plasmodium
observedProperty: pIC50
The read-out pIC50 is expressed as -log10 of concentration in moles per litre.

Given the compound C[C@H]1[C@H](OC(=O)CCC(=O)O)O[C@@H]2O[C@@]3(C)CC[C@H]4[C@H](C)CC[C@@H]1[C@@]24OO3 [Artesunate] , what is its reported pIC50? 7.99

----------
- testProtocol: in vivo
- studyConditions: female, BALB/c, mouse, iv, 10 mg/kg
observedProperty: half-life (h)
Report the figure in h without appending any unit label.

Given the molecule C[C@H]1[C@H](OC(=O)CCC(=O)O)O[C@@H]2O[C@@]3(C)CC[C@H]4[C@H](C)CC[C@@H]1[C@@]24OO3 [Artesunate] , what is its reported half-life? 1.52

----------
- testProtocol: in vivo
- studyConditions: female, BALB/c, mouse, iv, 10 mg/kg
observedProperty: clearance
Record the result as number plus unit.

Given the compound C[C@H]1[C@H](OC(=O)CCC(=O)O)O[C@@H]2O[C@@]3(C)CC[C@H]4[C@H](C)CC[C@@H]1[C@@]24OO3 [Artesunate] , what is its reported clearance? 3.73 mL/min/kg

----------
- testProtocol: in vivo
- studyConditions: female, BALB/c, mouse, iv, 10 mg/kg
observedProperty: MRT last (h)
Report the figure in h without appending any unit label.

Given the compound C[C@H]1[C@H](OC(=O)CCC(=O)O)O[C@@H]2O[C@@]3(C)CC[C@H]4[C@H](C)CC[C@@H]1[C@@]24OO3 [Artesunate] , what is its reported MRT last? 2.71
